Species: Rattus norvegicus
Experiment: DrugMatrix - Regimen: Daily Repeat
Format: toxicity, organism-based, Sprague-Dawley
Set-up: regimen Daily Repeat, gender Male, age 6-8 weeks
Conditions: in vivo, po, 0 mg/kg, 120 h, tissue Blood, route oral GAVAGE, dose level Control, time 5 day, vehicle .5 % CMC
MONOCYTE of 2% or higher: Criterion met. Under 2%: Criterion not met.

Q) Answer whether MONOCYTE of `C[C@]12CC[C@@H]3c4ccc(O)cc4CC[C@H]3[C@@H]1C[C@@H](O)[C@@H]2O` is greater than or equal to 2%.
A) Criterion not met

Q) Param item: `C[C@@](Cc1ccc(O)c(O)c1)(NN)C(=O)O.O`
A) Criterion not met

Q) Param item: CN(C)C(=O)C(CCN1CCC(O)(c2ccc(Cl)cc2)CC1)(c1ccccc1)c1ccccc1 [LOPERAMIDE]
A) Criterion not met

Q) Param item: `C#C[C@]1(O)CC[C@H]2[C@@H]3CCC4=CC(=O)CC[C@]4(C)[C@H]3CC[C@@]21C`
A) Criterion met

Q) Param item: `COc1ccc2c(c1OC)C(=O)O[C@@H]2[C@H]1c2c(cc3c(c2OC)OCO3)CCN1C`
A) Criterion met

Q) Param item: `CCOc1nc2cccc(C(=O)O)c2n1Cc1ccc(-c2ccccc2-c2nnn[nH]2)cc1`
A) Criterion not met

Q) Param item: `C[C@@H]1O[C@@H](O[C@H]2C[C@@H](O)[C@]3(CO)[C@H]4[C@H](O)C[C@]5(C)[C@@H](C6=CC(=O)OC6)CC[C@]5(O)[C@@H]4CC[C@]3(O)C2)[C@H](O)[C@H](O)[C@H]1O`
A) Criterion not met

---

Species on record: Rattus norvegicus
Assay: DrugMatrix - Regimen: Daily Repeat
Assay type: toxicity, organism-based, Sprague-Dawley
Set-up: regimen Daily Repeat, gender Male, age 6-8 weeks
Conditions: in vivo, po, 0 mg/kg, 120 h, tissue Plasma, route oral GAVAGE, dose level Control, time 5 day, vehicle .5 % CMC
PHOSPHORUS of 10 mg/dL or higher: Condition met. Under 10 mg/dL: Condition not met.

Q) Answer whether PHOSPHORUS of `CCOc1nc2cccc(C(=O)O)c2n1Cc1ccc(-c2ccccc2-c2nnn[nH]2)cc1` is greater than or equal to 10 mg/dL.
A) Condition met

Q) Param item: `CCCCC1=NC2(CCCC2)C(=O)N1Cc1ccc(-c2ccccc2-c2nnn[nH]2)cc1`
A) Condition not met

Q) Param item: `CN(C)CCN(Cc1cccs1)c1ccccn1`
A) Condition met

Q) Param item: NC(=O)N1c2ccccc2CC(=O)c2ccccc21 [OXCARBAZEPINE]
A) Condition met

Q) Param item: `CN1C(=O)CN=C(c2ccccc2)c2cc([N+](=O)[O-])ccc21`
A) Condition met

---

Would you mind telling me the reported MEAN CORPUSCULAR VOLUME of each entry?
Organism: Rattus norvegicus
Test: DrugMatrix - Regimen: Daily Repeat
Type: toxicity, organism-based, Sprague-Dawley
Parameters: regimen Daily Repeat, gender Male, age 6-8 weeks
Conditions: in vivo, po, 0 mg/kg, 72 h, tissue Blood, route oral GAVAGE, dose level Control, time 3 day, […]
Please give a number only; it is taken to be in fL.

Q) Entry CS(=O)(=O)Nc1ccc([N+](=O)[O-])cc1Oc1ccccc1 [NIMESULIDE] has what MEAN CORPUSCULAR VOLUME?
A) 67

Q) Param item: `O=c1c(-c2ccc(O)cc2)coc2cc(O)cc(O)c12`
A) 63.58

Q) Param item: `Cc1ccc(C)c(OCCCC(C)(C)C(=O)O)c1`
A) 62.65

Q) Param item: CCc1ccc(CCOc2ccc(CC3SC(=O)NC3=O)cc2)nc1 (centres undefined)
A) 62.95

Q) Param item: `CC(C)c1c(C(=O)Nc2ccccc2)c(-c2ccccc2)c(-c2ccc(F)cc2)n1CC[C@@H](O)C[C@@H](O)CC(=O)O`
A) 63.58

Q) Param item: ClC(Cl)(Cl)Cl [CARBON TETRACHLORIDE]
A) 65.62

Q) Param item: `CCCCC(=O)N(Cc1ccc(-c2ccccc2-c2nnn[nH]2)cc1)[C@H](C(=O)O)C(C)C`
A) 62.38

Q) Param item: `c1ccoc1`
A) 66.33

Q) Param item: `CC(=O)Oc1ccccc1C(=O)O`
A) 63.03
